ASSAYED SYSTEM: HiBit-KRAS^G12C (Homo sapiens, UniProt P01116, G12C)
Sequence (P01116 1-186 isoform P01116-2 G12C limits assumed): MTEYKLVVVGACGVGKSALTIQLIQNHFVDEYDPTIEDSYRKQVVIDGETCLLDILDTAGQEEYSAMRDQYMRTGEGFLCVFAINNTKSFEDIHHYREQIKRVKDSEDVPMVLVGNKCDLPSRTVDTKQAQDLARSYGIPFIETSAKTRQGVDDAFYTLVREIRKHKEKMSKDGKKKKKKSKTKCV
ASSAY COMMENT: HiBit degradation assay in SW1573 HiBit-KRas^G12C cells
Type: cell-based
Design: expressed in transfected cells; host or cells: SW1573 (clone E6), modified pcDNA3.1 vector, TK promoter
EXPERIMENTAL SETUP: SW1573 HiBit-KRas^G12C, 0.1% DMSO, 24 hours; read-out: KRas^G12C-HIBit (SW1573; 0.1% DMSO) DC50*
// reported DC50 for each item listed

- SMILES STR: "C=CC(=O)N1CCN(c2nc(OCCCN3CCC(OCC(=O)N[C@H](C(=O)N4C[C@H](O)C[C@H]4C(=O)N[C@@H](C)c4ccc(-c5scnc5C)cc4)C(C)(C)C)CC3)nc3c(F)c(-c4cc(O)cc5ccccc45)c(Cl)cc23)CC1"
  ASSAYED SYSTEM: "HiBit-KRAS^G12C (Homo sapiens, UniProt P01116, G12C)"
  MEASURED ENDPOINT: "DC50"
  OBSERVED: "100 to 1000 nM"
- SMILES STR: "C=CC(=O)N1CCN(c2nc(O[C@H](C)CN3CCC(OCCOCCOc4cc(-c5scnc5C)ccc4CNC(=O)[C@@H]4C[C@@H](O)CN4C(=O)[C@H](c4cc(C)no4)C(C)C)CC3)nc3c(F)c(-c4cc(O)cc5ccccc45)c(Cl)cc23)CC1"
  ASSAYED SYSTEM: "HiBit-KRAS^G12C (Homo sapiens, UniProt P01116, G12C)"
  MEASURED ENDPOINT: "DC50"
  OBSERVED: "100 to 1000 nM"
- SMILES STR: "C=CC(=O)N1CCN(c2nc(O[C@H](C)CN3CCC(OCCOCC(=O)N[C@H](C(=O)N4C[C@H](O)C[C@H]4C(=O)N[C@@H](C)c4ccc(-c5scnc5C)cc4)C(C)(C)C)CC3)nc3c(Oc4c(Cl)c(F)cc5[nH]ncc45)nc(Cl)cc23)CC1"
  ASSAYED SYSTEM: "HiBit-KRAS^G12C (Homo sapiens, UniProt P01116, G12C)"
  MEASURED ENDPOINT: "DC50"
  OBSERVED: "> 1000 nM"

Now consider a different molecule.
## Task Tell me the measured DC50 of `C=CC(=O)N1CCN(c2nc(O[C@H](C)CN3CCC(OCCOCCOCCOCCOc4cc(-c5scnc5C)ccc4CNC(=O)[C@@H]4C[C@@H](O)CN4C(=O)[C@@H](c4cc(C)no4)C(C)C)CC3)nc3c(F)c(-c4cc(O)cc5ccccc45)c(Cl)cc23)CC1` , please.
## Result > 1000 nM

====

ASSAYED SYSTEM: HiBit-KRAS^G12C (Homo sapiens, UniProt P01116, G12C)
ASSAY COMMENT: HiBit degradation assay in SW1573 HiBit-KRas^G12C cells
Format: cell-based
Set-up: expressed in transfected cells; host or cells: SW1573 (clone E6), modified pcDNA3.1 vector, TK promoter
EXPERIMENTAL SETUP: SW1573, SW1573 HiBit-KRas^G12C, 0.5% DMSO, 24 hours; read-out: KRas^G12C-HiBiT (SW1573; 0.5% DMSO) Dmax**
MEASURED ENDPOINT: Dmax

- MOLECULE: "C=C(F)C(=O)N1CCN(c2nc(OCCN3CCC4(CC3)CN(c3cc([C@H](C(=O)N5C[C@H](O)C[C@H]5C(=O)N[C@@H](C)c5ccc(-c6ccnn6C)cc5)C(C)C)on3)C4)nc3c(F)c(-c4cc(O)cc5ccccc45)c(Cl)cc23)C[C@@H]1CC#N (atropisomer, axis not shown)"
  ASSAYED SYSTEM: "HiBit-KRAS^G12C (Homo sapiens, UniProt P01116, G12C)"
  MEASURED ENDPOINT: "Dmax"
  OBSERVED: "> 70%"

# input for lookup
## Task Hi! What's the reported Dmax for `C=CC(=O)N1CCN(c2nc(OCCN3CCC(COCC(=O)N[C@H](C(=O)N4C[C@H](O)C[C@H]4C(=O)N[C@@H](C)c4ccc(-c5scnc5C)cc4)C(C)(C)C)CC3)nc3c(F)c(-c4nc(NC)cc5ccccc45)c(Cl)cc23)C[C@@H]1CC#N` on HiBit-KRAS^G12C (Homo sapiens, UniProt P01116, G12C)?
## Result > 70%
